ASSAY_EXPLANATION: Human HepG2 cell viability assay in 384 well format
Assay type: toxicity, cell-based
Set-up: dose 125 nL, time 70.5 hour; concentration not given beside the values
CONDITION_SET: HepG2 cells, read-out: Inhibition

COMPOUND	cytotoxicity at 70.5 h / %
CN(Cc1cccnc1)[C@@H]1CN(Cc2cnn(C)c2)[C@@H]2CCCO[C@H]12	-6.78
Cc1ccc2[nH]c(CN(C)Cc3n[nH]c4c3CCC4)nc2c1	-3.51
Cc1ccc(C)n1-c1c(C(=O)NCC(C)N(C)C)cnn1C (stereo unspecified)	-0.908
CCc1ncc2c(n1)CN(CC(O)COc1ccc(C#N)cc1)CC2 (stereo unspecified)	-0.808
CCCNc1ncc(CN2C[C@H]3CC[C@@H]2CN(C2CCOCC2)C3)cn1	2.68
COc1ccc(CCC(C)Nc2cccc(SC)c2)cc1 (stereo unspecified)	23.6
NC(=O)Cn1nc(-c2ccccc2F)ccc1=O	-9.13
Cn1cccc1-c1cc(C(=O)NCCCc2csc(N)n2)[nH]n1	18.4
O=C1N(CCCc2ccccc2)CCCC1(O)CNCc1ccccc1 (stereo unspecified)	-10.4
CC(=O)N1CC(C)CN(Cc2ccon2)c2ccccc21 (stereo unspecified)	-4.58
CN(C)C(=O)Cc1ccccc1NCc1noc(-c2ccccc2)n1	2.37
